Source of measurements: the supplement of paper PMC10567573

B1: RHOBTB3 (parent)
chain: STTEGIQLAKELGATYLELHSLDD

Variants of: B1
assay explanation: protein stability index of a GFP-peptide fusion (GPS, HEK-293T) (PSI 1-6); higher = more stable;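 also: lentivirally expressed fusions sorted by FACS into six bins by GFP to DsRed ratio, PSI derived from sequencing read proportions per bin multiplied by bin number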
condition info: c terminus: a fixed tail appended
Class key for protein stability index values: lower bin = under 2, middle bin = from 2 up to 4, upper bin = 4 and over

{"mutant designation": "L19H", "discrete label": "upper bin"}
{"mutant designation": "L12S", "discrete label": "upper bin"}
{"mutant designation": "G13K", "discrete label": "middle bin"}

Query: Just checking, what class would you give Y16P here?
Response: upper bin
